Provenance of the data: the supplement of paper PMC10567573

B1: STEAP1 (parent)
chain: WMLTRKQFGLLSFFFAVLHAIYSL

- Variants of: B1
- experimental.protocol: protein stability index of a GFP-peptide fusion (GPS, HEK-293T) (PSI 1-6); higher = more stable;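 note: lentivirally expressed fusions sorted by FACS into six bins by GFP to DsRed ratio, PSI derived from sequencing read proportions per bin multiplied by bin number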
- run.parameters: c terminus: a fixed tail appended
Classification field: enter TRUE for protein stability index values not below 2, FALSE for values below it.

Solved cases below.
> print(dat)
   mutation.descriptor  qualitative.label
1                 F13R               TRUE
2                 I21N               TRUE
3                 A16K              FALSE
4                 L11Y               TRUE
5                 A20Q               TRUE

(Q) State whether the measured protein stability index reaches 2, counting equality as reaching it, for "K6C"
(A) TRUE

(Q) Does "K6V" have a reported protein stability index of at least 2?
(A) TRUE

(Q) Could you verify whether the entry "Y22S" shows protein stability index of no less than 2?
(A) FALSE

(Q) Tell me whether protein stability index is at least 2 here: "T4Q"
(A) TRUE

(Q) # bool: protein stability index of "F14I" >= 2
(A) TRUE

(Q) Could you tell me if the measured protein stability index of "Y22G" reaches 2 or more?
(A) TRUE

(Q) Tell me whether protein stability index is at least 2 here: "L18K"
(A) TRUE

(Q) Does "F15T" have a reported protein stability index of at least 2?
(A) FALSE

(Q) Check if protein stability index >= 2 (inclusive). Item: "Q7C"
(A) FALSE

(Q) Quick check, protein stability index >= 2? "L3M"
(A) TRUE
